Reference for the values: patent US20250034173A1

Assignment: determine reported Kd for the given compounds.
Target: KRAS G12V (Homo sapiens (Human), UniProt P01116, G12V)
Sequence (P01116 other isoform, or with tags, fused parts or gaps G12V): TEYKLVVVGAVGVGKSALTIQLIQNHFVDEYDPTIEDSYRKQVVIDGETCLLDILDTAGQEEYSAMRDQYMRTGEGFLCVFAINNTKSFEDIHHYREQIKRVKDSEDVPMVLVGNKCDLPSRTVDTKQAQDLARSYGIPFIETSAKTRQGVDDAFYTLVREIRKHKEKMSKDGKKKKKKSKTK
Test: SPR binding affinity and kinetics, GDP-loaded KRAS G12V
Settings: GDP loaded protein, geomean
Description: No additional regeneration was used. Compound dissociation was monitored for at least 3600 seconds. […] No additional regeneration was used. The adequateness of the fit was judged by c2 values and the randomness of residue distribution.
Answers are plain numbers, in nM.

Need Kd for each of these compounds.
1. Fc1c(-c2c(Cl)c(Cl)cc3[nH]ncc23)nc2c3c(nc(OC[C@@]45CCCN4C[C@H](F)C5)nc13)N1CCCC[C@H]1CO2
2. C=C1CN2CCC[C@@]2(COc2nc3c4c(nc(-c5c(Cl)ccc6[nH]ncc56)c(F)c4n2)OC[C@@H]2COCCCN32)C1
3. C=C1CN2CCC[C@@]2(COc2nc3c4c(nc(-c5c(C(F)F)ccc6[nH]ncc56)c(F)c4n2)OC[C@@H]2COCCCN32)C1

Given back:
1. 2.6
2. 1.23
3. 3.9

====

target: KRAS G12D (Homo sapiens (Human), UniProt P01116, G12D); assay: SPR binding affinity and kinetics, GTPγS-loaded KRAS G12D; settings: GTPγS loaded protein, geomean
Sequence (P01116 other isoform, or with tags, fused parts or gaps G12D): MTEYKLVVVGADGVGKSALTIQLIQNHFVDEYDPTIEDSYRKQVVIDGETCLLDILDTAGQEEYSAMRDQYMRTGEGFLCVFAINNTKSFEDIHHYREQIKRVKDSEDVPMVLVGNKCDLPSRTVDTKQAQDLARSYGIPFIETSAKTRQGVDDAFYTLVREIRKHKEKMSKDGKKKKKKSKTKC
reported property: pKd
One number for each entry, as −log10 of the molar value.

Example results:
{"columns": ["compound", "target under test", "pKd"],
 "data": [
  ["C=C1CN2CCC[C@@]2(COc2nc3c4c(nc(-c5c(C6CC6)ccc6[nH]ncc56)c(F)c4n2)OC[C@@H]2COCCCN32)C1", "KRAS G12D (Homo sapiens (Human), UniProt P01116, G12D)", 7.29],
  ["C=C1CN2CC[C@@H](O)[C@@]2(COc2nc3c4c(nc(-c5c(C6CC6)c(Cl)cc6[nH]ncc56)c(F)c4n2)OC[C@@H]2COCCCN32)C1 (relative stereo)", "KRAS G12D (Homo sapiens (Human), UniProt P01116, G12D)", 9.00],
  ["Fc1c(-c2c(C3CC3)c(Cl)cc3[nH]ncc23)nc2c3c(nc(OC[C@@]45CCCN4CC(=C4COC4)C5)nc13)N1CCCOC[C@H]1CO2", "KRAS G12D (Homo sapiens (Human), UniProt P01116, G12D)", 8.70]
]}

Record pKd for all entries; do not skip any.
1. C=C1CN2CCC[C@@]2(COc2nc3c4c(nc(-c5c(C6CC6)c(Cl)cc6[nH]ncc56)c(F)c4n2)OC[C@@H]2CC[C@H](O)CN32)C1
2. C/C=C1\CN2CCC[C@@]2(COc2nc3c4c(nc(-c5c6c(cc7[nH]ncc57)CCC[C@H]6C)c(F)c4n2)OC[C@@H]2COCCCN32)C1

Given back:
1: 8.52; 2: 9.00

====

biological target: KRAS G12C (Homo sapiens (Human), UniProt P01116, G12C); experiment: SPR binding affinity and kinetics, GTPγS-loaded KRAS G12C; settings: GTPγS loaded protein, geomean
Sequence (P01116 other isoform, or with tags, fused parts or gaps G12C): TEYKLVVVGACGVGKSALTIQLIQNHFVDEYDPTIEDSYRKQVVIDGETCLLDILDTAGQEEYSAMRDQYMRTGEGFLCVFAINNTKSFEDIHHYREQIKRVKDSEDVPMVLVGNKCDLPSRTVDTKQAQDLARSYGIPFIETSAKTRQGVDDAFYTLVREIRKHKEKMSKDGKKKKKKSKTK
pKd: −log10 of the molar value.
Decide by pKd: equal to or exceeding 8 means yes (1), less means no (0).

A selection of reference data follows.
{"columns": ["compound", "category label"],
 "data": [
  ["C=C1CN2CCC[C@@]2(COc2nc3c4c(nc(-c5c(Cl)ccc6[nH]ncc56)c(F)c4n2)OC[C@@H]2COCCCN32)C1 [Example 6]", "no (0)"],
  ["COC/C=C1\\CN2CCC[C@@]2(COc2nc3c4c(nc(-c5c6c(cc7[nH]ncc57)CCC[C@H]6C)c(F)c4n2)OC[C@@H]2COCCCN32)C1 [Example 37]", "yes (1)"],
  ["C[C@@H]1CCCc2cc3[nH]ncc3c(-c3nc4c5c(nc(OC[C@@]67CCCN6C/C(=C/F)C7)nc5c3F)N3CCCOC[C@H]3CO4)c21 [Example 55]", "yes (1)"],
  ["C=C1CN2CCC[C@@]2(COc2nc3c4c(nc(-c5c(C6CC6)c(Cl)cc6[nH]ncc56)c(F)c4n2)OC[C@@H]2CC[C@H](O)CN32)C1 [Example 23]", "yes (1)"],
  ["COC/C=C1\\CN2CCC[C@@]2(COc2nc3c4c(nc(-c5c(C6CC6)c(Cl)cc6[nH]ncc56)c(F)c4n2)OC[C@@H]2COCCCN32)C1 [Example 28]", "yes (1)"]
]}

Asked: # check: pKd of C=C1CN2CCC[C@@]2(COc2nc3c4c(nc(-c5c6c(cc7[nH]ncc57)CCC[C@H]6OC)c(F)c4n2)OC[C@@H]2COCCCN32)C1 (single isomer, unassigned) [Example 57] is greater than or equal to 8
Given back: no (0)

Asked: Decide: pKd of COC/C=C1\CN2CCC[C@@]2(COc2nc3c4c(nc(-c5c6c(cc7[nH]ncc57)CCC[C@H]6OC)c(F)c4n2)OC[C@@H]2COCCCN32)C1 (single isomer, unassigned) [Example 58] >= 8?
Given back: no (0)

Asked: Quick check, pKd >= 8? C[C@@H]1CCCc2cc3[nH]ncc3c(-c3nc4c5c(nc(OC[C@@]67CCCN6C[C@H](F)C7)nc5c3F)N3CCCOC[C@H]3CO4)c21 [Example 36]
Given back: yes (1)

Asked: Say whether C/C=C1/CN2CCC[C@@]2(COc2nc3c4c(nc(-c5c(C6CC6)c(Cl)cc6[nH]ncc56)c(F)c4n2)OC[C@@H]2COCCCN32)C1 [Example 27] shows pKd of 8 or more.
Given back: yes (1)

Asked: State whether the measured pKd reaches 8, counting equality as reaching it, for C=C1CN2CCC[C@@]2(COc2nc3c4c(nc(-c5c(C6CC6)c(Cl)cc6[nH]ncc56)c(F)c4n2)OC[C@@H]2COCCCN32)C1 [Example 2]
Given back: yes (1)

====

target: KRAS G12V (Homo sapiens (Human), UniProt P01116, G12V); assay: SPR binding affinity and kinetics, GDP-loaded KRAS G12V; settings: GDP loaded protein, geomean
reported property: pKd
Numbers only, as −log10 of the molar value.

Before answering, review these 3 worked examples.
{"columns": ["smiles data", "target under test", "pKd"],
 "data": [
  ["C=C1CN2CCC[C@@]2(COc2nc3c4c(nc(-c5c(C6CC6)c(Cl)cc6[nH]ncc56)c(F)c4n2)OC[C@@H]2COCCCN32)C1", "KRAS G12V (Homo sapiens (Human), UniProt P01116, G12V)", 9.84],
  ["C=C1CN2CCC[C@@]2(COc2nc3c4c(nc(-c5c(Cl)c(Cl)cc6[nH]ncc56)c(F)c4n2)OC[C@@H]2COCCCN32)C1", "KRAS G12V (Homo sapiens (Human), UniProt P01116, G12V)", 10.17],
  ["Fc1c(-c2c(C3CC3)c(Cl)cc3[nH]ncc23)nc2c3c(nc(OC[C@@]45CCCN4C[C@H](F)C5)nc13)N1CCCOC[C@H]1CO2", "KRAS G12V (Homo sapiens (Human), UniProt P01116, G12V)", 9.98]
]}

I'm hoping you can list pKd for every compound here, please.
1. C=C1CN2CCC[C@@]2(COc2nc3c4c(nc(-c5c(C(F)(F)F)c(Cl)cc6[nH]ncc56)c(F)c4n2)OC[C@@H]2COCCCN32)C1
2. C=C1CN2CCC[C@@]2(COc2nc3c4c(nc(-c5c(C(F)(F)F)ccc6[nH]ncc56)c(F)c4n2)OC[C@@H]2COCCCN32)C1
3. C=C1CN2CCC[C@@]2(COc2nc3c4c(nc(-c5c(C)ccc6[nH]ncc56)c(F)c4n2)OC[C@@H]2COCCCN32)C1

Given back:
[10.14, 9.97, 8.56]

====

molecular target: UniProt:P01116; experiment: SPR binding affinity and kinetics, GTPγS-loaded KRAS Wild Type; settings: GTPγS loaded protein, geomean
Mark MET only when Kd stays strictly below 4 nM. Values equal to the cut-off are NOT MET.

{"columns": ["compound", "target under test", "category label"],
 "data": [
  ["COC/C=C1/CN2CCC[C@@]2(COc2nc3c4c(nc(-c5c(C6CC6)c(Cl)cc6[nH]ncc56)c(F)c4n2)OC[C@@H]2COCCCN32)C1 (relative stereo) [Example 49]", "UniProt:P01116", "NOT MET"],
  ["Fc1c(-c2c(C3CC3)c(Cl)cc3[nH]ncc23)nc2c3c(nc(OC[C@]45CCCN4CC4(CC4)C5)nc13)N1CCCOC[C@H]1CO2", "UniProt:P01116", "NOT MET"],
  ["COC/C=C1\\CN2CCC[C@@]2(COc2nc3c4c(nc(-c5c6c(cc7[nH]ncc57)CCC[C@H]6OC)c(F)c4n2)OC[C@@H]2COCCCN32)C1 (relative stereo) [Example 59]", "UniProt:P01116", "NOT MET"],
  ["C[C@@H]1CCCc2cc3[nH]ncc3c(-c3nc4c5c(nc(OC[C@@]67CCCN6C/C(=C/F)C7)nc5c3F)N3CCCOC[C@H]3CO4)c21", "UniProt:P01116", "MET"],
  ["C=C1CN2C[C@@H](O)C[C@@]2(COc2nc3c4c(nc(-c5c(C6CC6)c(Cl)cc6[nH]ncc56)c(F)c4n2)OC[C@@H]2COCCCN32)C1", "UniProt:P01116", "NOT MET"],
  ["C=C1CN2CCC[C@@]2(COc2nc3c4c(nc(-c5c6c(cc7[nH]ncc57)CCC[C@H]6OC)c(F)c4n2)OC[C@@H]2COCCCN32)C1 (single isomer, unassigned) [Example 57]", "UniProt:P01116", "NOT MET"],
  ["C=C1CN2CCC[C@@]2(COc2nc3c4c(nc(-c5c(C(F)F)ccc6[nH]ncc56)c(F)c4n2)OC[C@@H]2COCCCN32)C1", "UniProt:P01116", "NOT MET"],
  ["C[C@@H]1CCCc2cc3[nH]ncc3c(-c3nc4c5c(nc(OC[C@@]67CCCN6C[C@H](F)C7)nc5c3F)N3CCCOC[C@H]3CO4)c21", "UniProt:P01116", "NOT MET"],
  ["Fc1c(-c2c(C3CC3)c(Cl)cc3[nH]ncc23)nc2c3c(nc(OC[C@@]45CCCN4C[C@H](F)C5)nc13)N1CCCOC[C@H]1CO2", "UniProt:P01116", "NOT MET"],
  ["C=C1CN2CCC[C@@]2(COc2nc3c4c(nc(-c5c(C(C)C)c(Cl)cc6[nH]ncc56)c(F)c4n2)OC[C@@H]2COCCCN32)C1", "UniProt:P01116", "NOT MET"]
]}

Asked: Decide: Kd of COC/C=C1/CN2CCC[C@@]2(COc2nc3c4c(nc(-c5c(C6CC6)c(Cl)cc6[nH]ncc56)c(F)c4n2)OC[C@@H]2COCCCN32)C1 (relative stereo) [Example 48] strictly below 4 nM?
Given back: NOT MET

Asked: Dear colleague, could you confirm whether Kd of C=C1CN2CC[C@@H](O)[C@@]2(COc2nc3c4c(nc(-c5c(C6CC6)c(Cl)cc6[nH]ncc56)c(F)c4n2)OC[C@@H]2COCCCN32)C1 (relative stereo) falls below 4 nM? Thanks.
Given back: MET

Asked: Kd strictly < 4 nM for this compound? `C=C1CN2CCC[C@@]2(COc2nc3c4c(nc(-c5c6c(cc7[nH]ncc57)CCCC6)c(F)c4n2)OC[C@@H]2COCCCN32)C1`
Given back: NOT MET

Asked: In the record for `Fc1c(-c2c(C3CC3)c(Cl)cc3[nH]ncc23)nc2c3c(nc(OC[C@@]45CCCN4CC(=C4CC4)C5)nc13)N1CCCOC[C@H]1CO2` , is Kd less than 4 nM?
Given back: NOT MET

Asked: Could you please tell me whether Kd recorded for `C/C=C1/CN2CCC[C@@]2(COc2nc3c4c(nc(-c5c(C6CC6)c(Cl)cc6[nH]ncc56)c(F)c4n2)OC[C@@H]2COCCCN32)C1` is less than 4 nM?
Given back: NOT MET

Asked: Please indicate whether the reported Kd of `COC/C=C1\CN2CCC[C@@]2(COc2nc3c4c(nc(-c5c(C6CC6)c(Cl)cc6[nH]ncc56)c(F)c4n2)OC[C@@H]2COCCCN32)C1` is strictly below 4 nM.
Given back: MET

Asked: Determine whether this compound shows Kd lower than 4 nM (ties excluded): `Fc1c(-c2c(C3CC3)c(Cl)cc3[nH]ncc23)nc2c3c(nc(OC[C@@]45C[C@@H](F)CN4CC4(CC4)C5)nc13)N1CCCOC[C@H]1CO2`
Given back: NOT MET
